- studySystem: T1, recombinant extracellular domain (ECD) of human TF, amino acid 1-219 of the mature chain, C-terminal His6-tag (human, UniProt P13726 33-251)
- T1 construct: expressed in a mammalian system; used for ELISA and Biacore; biotinylated by NHS-ester for the Fab ELISA; also called His6-TF-ECD1-219; HumanTF1-219
- method: Biacore
recordedEndpoint: koff (s⁻¹)
Number only, in s⁻¹; omit the unit.

M26 (antibody, V domains shown, complete MAb; FR4 is its own entry; also called H17/L5) VH: QVQLVQSGAEVKKPGASVKVSCKASGYTFITYWIEWVRQAPGQRLEWMGDILPGSGSTNYNENFKGRVTITRDTSASTAYMELSSLRSEDTAVYYCARSGYYGNSGFAYWGQGTLVTVSS VL: DIVMTQTPLSLSVTPGQPASISCKSSQSLLSSGNQKNYLTWYLQKPGQPPQLLIYWASTRESGVPDRFSGSGSGTDFTLKISRVEAEDVGVYYCQNDYTYPLTFGQGTKLEIK : 9.3e-05
M19 (antibody, V domains shown, complete MAb; FR4 is its own entry; also called H16/L5) VH: QVQLVQSGAEVKKPGASVKVSCKASGYTFITYWIEWVRQAPGQGLEWMGDILPGSGSTNYNENFKGRVTMTRDTSTSTVYMELSSLRSEDTAVYYCARSGYYGNSGFAYWGQGTLVTVSS VL: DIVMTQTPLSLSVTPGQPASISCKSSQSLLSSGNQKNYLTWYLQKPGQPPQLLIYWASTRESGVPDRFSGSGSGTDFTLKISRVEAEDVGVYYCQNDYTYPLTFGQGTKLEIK : 4.1e-05
M1594 (antibody, V domains shown, complete MAb; FR4 is its own entry; also called H158/L3) VH: EVQLVQSGAEVKKPGESLRISCKGSGYTFPPYWIEWVRQMPGKGLEWMGDILPGTGYTVYSPSFQGHVTISADKSISTAYLQWSSLKASDTAMYYCARSGYYGNSGFAYWGQGTLVTVSS VL: DIVMTQTPLSLPVTPGEPASISCKSSQSLLSSGNQKNYLTWYLQKPGQSPQLLIYWASTRESGVPDRFSGSGSGTDFTLKISRVEAEDVGVYYCQNDYTYPLTFGQGTKLEIK : 4.3e-05
M42 (antibody, V domains shown, complete MAb; FR4 is its own entry; also called H19/L7) VH: QVQLVQSGAEVKKPGSSVKVSCKASGYTFITYWIEWVRQAPGQGLEWMGDILPGSGSTNYNENFKGRVTITADESTSTAYMELSSLRSEDTAVYYCARSGYYGNSGFAYWGQGTLVTVSS VL: DIVMTQTPLSSPVTLGQPASISCKSSQSLLSSGNQKNYLTWLQQRPGQPPRLLIYWASTRESGVPDRFSGSGAGTDFTLKISRVEAEDVGVYYCQNDYTYPLTFGQGTKLEIK : 8.2e-05

I am curious: what koff value has been reported for M1591 (antibody, V domains shown, complete MAb; FR4 is its own entry; also called H122/L3) VH: EVQLVQSGAEVKKPGESLRISCKGSGYTFRPYWIEWVRQMPGKGLEWMGDIIPGTGYTNYSPSFQGHVTISADKSISTAYLQWSSLKASDTAMYYCARSGYYGNSGFAYWGQGTLVTVSS VL: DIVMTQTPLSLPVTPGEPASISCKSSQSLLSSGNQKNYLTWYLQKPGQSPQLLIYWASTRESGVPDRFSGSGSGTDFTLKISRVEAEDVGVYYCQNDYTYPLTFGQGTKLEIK ?
5.6e-05
